- SYSTEM_TESTED: human RORgT (Homo sapiens)
- Sequence (P51449 267-516): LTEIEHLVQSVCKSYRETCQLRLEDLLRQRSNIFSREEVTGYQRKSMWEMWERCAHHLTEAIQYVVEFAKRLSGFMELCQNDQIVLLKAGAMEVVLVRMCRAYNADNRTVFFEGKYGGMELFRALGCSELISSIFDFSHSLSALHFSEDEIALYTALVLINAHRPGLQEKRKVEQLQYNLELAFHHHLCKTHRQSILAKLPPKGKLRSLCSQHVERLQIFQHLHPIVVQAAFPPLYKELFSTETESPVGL
- PROCEDURE_DETAILS: RORgT Gal4 Luciferase Reporter Gene Assay
- PARTICULARS: engineered Jurkat cells overexpressing RORgT (LBD or full length) fused with Gal4 Luc reporter; 18 hours at 37° C.; luminescence
VALUE_TYPE: EC50 (nM)

Consider the following illustrative entries.
INSERT INTO assay_data (molecule, experimental_value) VALUES
  ('NC(=O)N1CCC(C(=O)N2CC[C@@]3(S(=O)(=O)c4ccc(F)cc4)c4ccc(OCc5c(F)cc(F)cc5Cl)cc4CC[C@@H]23)CC1 [Example 220]', 13),
  ('CC(=O)N1CCC(C(=O)N2CC[C@@]3(S(=O)(=O)c4ccc(F)cc4)c4ccc(OCc5cc(F)ccc5Cl)cc4CC[C@@H]23)CC1 [Example 174]', 26),
  ('NC(=O)N1CCC(C(=O)N2CC[C@@]3(S(=O)(=O)c4ccccc4)c4ccc(OCc5ccccc5)cc4CC[C@@H]23)CC1 [Example 78]', 140),
  ('CC(=O)N1CCC(C(=O)N2CC[C@@]3(S(=O)(=O)c4ccc(F)cc4)c4ccc(OCc5cc(Cl)ccc5Cl)cc4CC[C@@H]23)CC1 [Example 196]', 37);

[I] CC1(O)CN(C(=O)N2CC[C@@]3(S(=O)(=O)c4ccccc4)c4ccc(OCc5c(Cl)cccc5Cl)cc4CC[C@@H]23)C1 [Example 83]
[II] O=C(C1CCS(=O)(=O)CC1)N1CC[C@@]2(S(=O)(=O)c3ccccc3)c3ccc(OCc4c(F)cccc4C(F)(F)F)cc3CC[C@@H]12 [Example 132]
Among I and II , whose measured EC50 is the smaller figure? Answer = label.
II
